Tested on: Staphylococcus epidermidis KCTC 1917
Result Type: MIC (µM)
Numbers only here, please. The scale is µM.

* C[C@@H](O)[C@H](NC(=O)[C@H](CCCCN)NC(=O)[C@H](Cc1c[nH]c2ccccc12)NC(=O)[C@H](Cc1c[nH]c2ccccc12)NC(=O)[C@@H](NC(=O)[C@H](CCCCN)NC(=O)[C@@H](N)CCCCN)[C@@H](C)O)C(=O)N[C@@H](Cc1c[nH]c2ccccc12)C(=O)N[C@@H](Cc1c[nH]c2ccccc12)C(=O)N[C@H](C(=O)N[C@@H](CCCCN)C(=O)N[C@@H](Cc1c[nH]c2ccccc12)C(=O)N[C@@H](CO)C(=O)N[C@@H](CCC(N)=O)C(=O)N1CCC[C@H]1C(=O)O)[C@@H](C)O [KKTWWKTWWTKWSQP] | 4

Query compound follows.
Item CC(C)C[C@H](NC(=O)[C@H](C)NC(=O)[C@H](Cc1c[nH]c2ccccc12)NC(=O)[C@H](CCCCN)NC(=O)[C@H](CC(N)=O)NC(=O)[C@H](Cc1c[nH]c2ccccc12)NC(=O)[C@H](CCCCN)NC(=O)[C@H](CCCCN)NC(=O)[C@H](CCCN=C(N)N)NC(=O)[C@@H](N)Cc1ccccc1)C(=O)N[C@@H](CO)C(=O)N[C@@H](CCCN=C(N)N)C(N)=O [FRKKWNKWALSR] : provide MIC
8
